This collection of values is drawn from patent US10464911B2.

Here, each record is paired with measured pIC50 data.
# target of assay: human recombinant HDAC1 (Homo sapiens (Human))
# assay notes: HDAC1 enzyme activity inhibition assay (HDAC Fluorimetric Drug Discovery Kit)
# condition set: human recombinant HDAC1, Fluor de Lys substrate 10 μM, 60 minutes
pIC50: −log10 of the molar value.

compound	pIC50
CC(=O)N1[C@H](C)CN(S(=O)(=O)N(Cc2ccc(-c3nnc(C(F)F)o3)cn2)c2ccccc2)C[C@@H]1C	4.14
O=S(=O)(N1CCN(C2COC2)CC1)N(Cc1ccc(-c2nnc(C(F)(F)F)o2)cn1)c1ccccc1	4.38
Cl.O=S(=O)(N1CCNCC1)N(Cc1ccc(-c2nnc(C(F)(F)F)o2)cc1F)c1cccc(F)c1 [Compound 11309, Hydrochloride]	4.38
Cl.O=S(=O)(N1CCNCC1)N(Cc1ccc(-c2nnc(C(F)(F)F)o2)cc1F)c1ccccc1 [Compound 11293, Hydrochloride]	4.12
O=S(=O)(N1CCN(C2COC2)CC1)N(Cc1ccc(-c2nnc(C(F)(F)F)o2)cc1F)c1ccccc1	4.32

###

# target of assay: human recombinant HDAC1 (Homo sapiens (Human), UniProt Q13547)
# Sequence (Q13547 whole entry): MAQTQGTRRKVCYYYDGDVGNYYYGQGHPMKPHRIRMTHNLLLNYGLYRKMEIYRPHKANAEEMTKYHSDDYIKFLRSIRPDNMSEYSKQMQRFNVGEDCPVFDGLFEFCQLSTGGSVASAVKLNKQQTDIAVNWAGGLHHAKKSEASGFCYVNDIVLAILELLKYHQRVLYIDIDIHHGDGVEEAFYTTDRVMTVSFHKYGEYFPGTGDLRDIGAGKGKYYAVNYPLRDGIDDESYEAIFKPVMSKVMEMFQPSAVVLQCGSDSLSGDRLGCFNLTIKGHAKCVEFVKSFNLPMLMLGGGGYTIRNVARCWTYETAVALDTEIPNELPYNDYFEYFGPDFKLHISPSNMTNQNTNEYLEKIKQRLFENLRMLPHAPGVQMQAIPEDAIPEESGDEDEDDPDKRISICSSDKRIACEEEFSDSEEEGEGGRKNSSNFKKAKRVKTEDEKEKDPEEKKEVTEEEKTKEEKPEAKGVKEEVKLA
# assay notes: HDAC1 enzyme activity inhibition assay (HDAC Fluorimetric Drug Discovery Kit)
# condition set: human recombinant HDAC1, Fluor de Lys substrate 10 μM, 60 minutes
pIC50: −log10 of the molar value.
Attribute: pIC50
recorded metric: pIC50

compound smiles	target of assay	recorded measurement
C[C@@H]1CN(S(=O)(=O)N(Cc2ccc(-c3nnc(C(F)F)o3)cc2)c2cccnc2)C[C@H](C)N1C	human recombinant HDAC1 (Homo sapiens (Human), UniProt Q13547)	4.26
CC(=O)N1[C@H](C)CN(S(=O)(=O)N(Cc2ccc(-c3nnc(C(F)F)o3)cc2)c2cccnc2)C[C@@H]1C	human recombinant HDAC1 (Homo sapiens (Human), UniProt Q13547)	4.12
CCN1[C@H](C)CN(S(=O)(=O)N(Cc2ccc(-c3nnc(C(F)F)o3)cn2)c2ccccc2)C[C@@H]1C	human recombinant HDAC1 (Homo sapiens (Human), UniProt Q13547)	3.94
O=S1(=O)CCN(S(=O)(=O)N(Cc2ccc(-c3nnc(C(F)F)o3)cn2)c2ccc(F)c(Cl)c2)CC1	human recombinant HDAC1 (Homo sapiens (Human), UniProt Q13547)	4.31
O=S(=O)(N1CCN(C2COC2)CC1)N(Cc1ccc(-c2nnc(C(F)F)o2)cc1)c1ccc(F)c(Cl)c1	human recombinant HDAC1 (Homo sapiens (Human), UniProt Q13547)	4.28
CN1CCN(S(=O)(=O)N(Cc2ccc(-c3nnc(C(F)F)o3)cc2)c2ccc(F)c(Cl)c2)CC1	human recombinant HDAC1 (Homo sapiens (Human), UniProt Q13547)	4.15
CN1CCN(CCN(C)S(=O)(=O)N(Cc2ccc(-c3nnc(C(F)F)o3)cc2)c2ccccc2)CC1	human recombinant HDAC1 (Homo sapiens (Human), UniProt Q13547)	4.30

###

# target of assay: human recombinant HDAC6 (Homo sapiens (Human), UniProt Q9UBN7)
# Sequence (Q9UBN7 whole entry): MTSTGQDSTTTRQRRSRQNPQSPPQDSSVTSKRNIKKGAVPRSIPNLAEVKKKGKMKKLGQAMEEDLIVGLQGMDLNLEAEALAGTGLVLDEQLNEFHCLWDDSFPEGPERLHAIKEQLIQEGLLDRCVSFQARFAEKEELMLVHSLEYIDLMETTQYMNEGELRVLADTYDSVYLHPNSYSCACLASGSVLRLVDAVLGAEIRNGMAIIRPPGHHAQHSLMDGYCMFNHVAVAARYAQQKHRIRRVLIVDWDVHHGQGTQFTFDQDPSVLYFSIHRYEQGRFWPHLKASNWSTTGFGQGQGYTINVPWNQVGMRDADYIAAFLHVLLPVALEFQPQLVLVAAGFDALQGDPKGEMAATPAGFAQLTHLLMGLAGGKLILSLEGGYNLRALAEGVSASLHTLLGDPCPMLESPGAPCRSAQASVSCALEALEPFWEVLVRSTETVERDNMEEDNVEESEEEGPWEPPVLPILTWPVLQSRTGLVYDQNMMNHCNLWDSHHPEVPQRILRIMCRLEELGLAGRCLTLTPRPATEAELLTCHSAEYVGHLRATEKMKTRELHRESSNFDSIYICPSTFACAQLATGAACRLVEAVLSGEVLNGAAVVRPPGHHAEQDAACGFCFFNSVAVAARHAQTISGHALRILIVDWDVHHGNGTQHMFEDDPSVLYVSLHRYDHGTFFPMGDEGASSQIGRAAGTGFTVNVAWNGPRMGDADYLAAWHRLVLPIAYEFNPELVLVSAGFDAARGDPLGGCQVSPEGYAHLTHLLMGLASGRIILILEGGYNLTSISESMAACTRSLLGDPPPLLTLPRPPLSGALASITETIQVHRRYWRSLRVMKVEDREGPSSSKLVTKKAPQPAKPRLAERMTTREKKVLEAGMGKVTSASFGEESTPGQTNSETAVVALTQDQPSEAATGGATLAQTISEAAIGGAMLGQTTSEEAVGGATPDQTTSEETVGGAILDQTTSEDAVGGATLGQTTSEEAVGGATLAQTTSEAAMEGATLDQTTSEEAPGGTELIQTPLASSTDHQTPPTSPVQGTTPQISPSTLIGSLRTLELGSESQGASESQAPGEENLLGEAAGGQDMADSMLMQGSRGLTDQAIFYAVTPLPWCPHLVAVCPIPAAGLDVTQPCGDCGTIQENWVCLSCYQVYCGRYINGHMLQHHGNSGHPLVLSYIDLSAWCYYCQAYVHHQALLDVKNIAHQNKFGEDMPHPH
# assay notes: HDAC6 enzyme activity inhibition assay (HDAC Fluorimetric Drug Discovery Kit)
# Type: biochemical
# condition set: HDAC6 versus HDAC1
Structures can show the parent of a compound that is named as a salt.
recorded metric: HDAC6 selectivity (fold)

compound	target of assay	recorded metric	recorded measurement
CC(=O)N1[C@H](C)CN(S(=O)(=O)N(Cc2ccc(-c3nnc(C(F)F)o3)cc2)c2ccccc2)C[C@@H]1C	human recombinant HDAC6 (Homo sapiens (Human), UniProt Q9UBN7)	HDAC6 selectivity (fold)	2989 fold
O=S1(=O)CCN(S(=O)(=O)N(Cc2ccc(-c3nnc(C(F)F)o3)cn2)c2ccccc2)CC1	human recombinant HDAC6 (Homo sapiens (Human), UniProt Q9UBN7)	HDAC6 selectivity (fold)	5000 fold
C[C@@H]1CN(S(=O)(=O)N(Cc2ccc(-c3nnc(C(F)F)o3)cn2)c2cccc(Cl)c2)CCN1C1COC1	human recombinant HDAC6 (Homo sapiens (Human), UniProt Q9UBN7)	HDAC6 selectivity (fold)	2439 fold
CC(=O)N1CCN(S(=O)(=O)N(Cc2ccc(-c3nnc(C(F)F)o3)cc2F)c2ccccc2)CC1	human recombinant HDAC6 (Homo sapiens (Human), UniProt Q9UBN7)	HDAC6 selectivity (fold)	3174 fold
CN1CCN(CCN(C)S(=O)(=O)N(Cc2ccc(-c3nnc(C(F)F)o3)cc2)c2ccccc2)CC1	human recombinant HDAC6 (Homo sapiens (Human), UniProt Q9UBN7)	HDAC6 selectivity (fold)	542 fold
Cl.O=S(=O)(N1CCNCC1)N(Cc1ccc(-c2nnc(C(F)F)o2)cc1F)c1ccccc1	human recombinant HDAC6 (Homo sapiens (Human), UniProt Q9UBN7)	HDAC6 selectivity (fold)	3622 fold
Cl.O=S(=O)(N1CCNCC1)N(Cc1ccc(-c2nnc(C(F)(F)F)o2)cc1F)c1cccc(F)c1	human recombinant HDAC6 (Homo sapiens (Human), UniProt Q9UBN7)	HDAC6 selectivity (fold)	710 fold
CC(=O)N1CCN(S(=O)(=O)N(Cc2ccc(-c3nnc(C(F)F)o3)cc2F)c2cccnc2)CC1	human recombinant HDAC6 (Homo sapiens (Human), UniProt Q9UBN7)	HDAC6 selectivity (fold)	2299 fold
O=S(=O)(N1CCC2(CC1)CN(C1CCC1)C2)N(Cc1ccc(-c2nnc(C(F)F)o2)cc1)c1ccccc1	human recombinant HDAC6 (Homo sapiens (Human), UniProt Q9UBN7)	HDAC6 selectivity (fold)	819 fold
CCCN1[C@H](C)CN(S(=O)(=O)N(Cc2ccc(-c3nnc(C(F)F)o3)cc2)c2ccccc2)C[C@@H]1C	human recombinant HDAC6 (Homo sapiens (Human), UniProt Q9UBN7)	HDAC6 selectivity (fold)	287 fold
CS(=O)(=O)N1CCN(S(=O)(=O)N(Cc2ccc(-c3nnc(C(F)F)o3)cc2F)c2ccccc2)CC1	human recombinant HDAC6 (Homo sapiens (Human), UniProt Q9UBN7)	HDAC6 selectivity (fold)	2620 fold
O=S(=O)(N1CCN(C2CCC2)CC1)N(Cc1ccc(-c2nnc(C(F)F)o2)cn1)c1ccc(F)c(Cl)c1	human recombinant HDAC6 (Homo sapiens (Human), UniProt Q9UBN7)	HDAC6 selectivity (fold)	3703 fold
C[C@H]1CN(S(=O)(=O)N(Cc2ccc(-c3nnc(C(F)F)o3)cn2)c2cccc(Cl)c2)CCN1C1COC1	human recombinant HDAC6 (Homo sapiens (Human), UniProt Q9UBN7)	HDAC6 selectivity (fold)	5882 fold
CN(CCN1CCN(S(C)(=O)=O)CC1)S(=O)(=O)N(Cc1ccc(-c2nnc(C(F)F)o2)cc1)c1ccccc1	human recombinant HDAC6 (Homo sapiens (Human), UniProt Q9UBN7)	HDAC6 selectivity (fold)	616 fold
O=S(=O)(N1CCN(C2COC2)CC1)N(Cc1ccc(-c2nnc(C(F)F)o2)cn1)c1cccc(Cl)c1	human recombinant HDAC6 (Homo sapiens (Human), UniProt Q9UBN7)	HDAC6 selectivity (fold)	4761 fold
O=S(=O)(N1CCC2(CC1)CN(C1COC1)C2)N(Cc1ccc(-c2nnc(C(F)F)o2)cc1)c1ccccc1	human recombinant HDAC6 (Homo sapiens (Human), UniProt Q9UBN7)	HDAC6 selectivity (fold)	561 fold
O=S(=O)(N1CCN(C2COC2)CC1)N(Cc1ccc(-c2nnc(C(F)(F)F)o2)cn1)c1ccccc1	human recombinant HDAC6 (Homo sapiens (Human), UniProt Q9UBN7)	HDAC6 selectivity (fold)	527 fold
O=S(=O)(N1CCNCC1)N(Cc1ccc(-c2nnc(C(F)(F)F)o2)cc1F)c1cccnc1 [Compound 11321, Dihydrochloride]	human recombinant HDAC6 (Homo sapiens (Human), UniProt Q9UBN7)	HDAC6 selectivity (fold)	2249 fold
O=S(=O)(N1CCN(C2CCC2)CC1)N(Cc1ccc(-c2nnc(C(F)F)o2)cn1)c1cccc(Cl)c1	human recombinant HDAC6 (Homo sapiens (Human), UniProt Q9UBN7)	HDAC6 selectivity (fold)	2777 fold
CS(=O)(=O)N1CCN(S(=O)(=O)N(Cc2ccc(-c3nnc(C(F)F)o3)cc2F)c2cccnc2)CC1	human recombinant HDAC6 (Homo sapiens (Human), UniProt Q9UBN7)	HDAC6 selectivity (fold)	1464 fold
O=S(=O)(N1CCNCC1)N(Cc1ccc(-c2nnc(C(F)F)o2)cc1F)c1cccnc1 [Compound 11317, Dihydrochloride]	human recombinant HDAC6 (Homo sapiens (Human), UniProt Q9UBN7)	HDAC6 selectivity (fold)	1234 fold
CN1CCN(S(=O)(=O)N(Cc2ccc(-c3nnc(C(F)F)o3)cc2F)c2cccc(F)c2)CC1	human recombinant HDAC6 (Homo sapiens (Human), UniProt Q9UBN7)	HDAC6 selectivity (fold)	4031 fold
O=S(=O)(N1CCN(C2CCC2)CC1)N(Cc1ccc(-c2nnc(C(F)F)o2)cc1)c1ccccc1	human recombinant HDAC6 (Homo sapiens (Human), UniProt Q9UBN7)	HDAC6 selectivity (fold)	751 fold
CC(C)N1CCN(S(=O)(=O)N(Cc2ccc(-c3nnc(C(F)F)o3)cc2)c2ccccc2)CC1	human recombinant HDAC6 (Homo sapiens (Human), UniProt Q9UBN7)	HDAC6 selectivity (fold)	1351 fold
Cl.O=S(=O)(N1CCNCC1)N(Cc1ccc(-c2nnc(C(F)(F)F)o2)cc1F)c1ccccc1	human recombinant HDAC6 (Homo sapiens (Human), UniProt Q9UBN7)	HDAC6 selectivity (fold)	1156 fold
C[C@@H]1CN(S(=O)(=O)N(Cc2ccc(-c3nnc(C(F)F)o3)cc2)c2cccnc2)C[C@H](C)N1C	human recombinant HDAC6 (Homo sapiens (Human), UniProt Q9UBN7)	HDAC6 selectivity (fold)	1182 fold
CN1CCN(S(=O)(=O)N(Cc2ccc(-c3nnc(C(F)(F)F)o3)cc2F)c2cccc(F)c2)CC1	human recombinant HDAC6 (Homo sapiens (Human), UniProt Q9UBN7)	HDAC6 selectivity (fold)	1371 fold
CC(C)N1CCN(S(=O)(=O)N(Cc2ccc(-c3nnc(C(F)F)o3)cn2)c2ccc(F)c(Cl)c2)CC1	human recombinant HDAC6 (Homo sapiens (Human), UniProt Q9UBN7)	HDAC6 selectivity (fold)	4761 fold
